- System: p53 in A2780 cells
- test-name: p53 ELISA (preservation of p53 in A2780 cells)
- Assay type: cell-based
- condition-set: Homo sapiens, treated with compound for 16 hours, read-out: p53-elisa LAD (lowest dose giving at least 140% of the value for p53 present in the control)
property-label: minimal effective concentration (µM)
Answers are plain numbers, in µM.

Sample answers from the record:
- molecule: "OCc1cc(Nc2ccc3c(c2)OCCN3CCc2csc3ccccc23)ccn1 [Compound 67]"
  minimal effective concentration, µM: 10
- molecule: "OCc1cc(Nc2ccc3c(c2)OC(c2ccoc2)CN3CCc2c[nH]c3ccccc23)ccn1 (stereo not shown) [Compound 35]"
  minimal effective concentration, µM: 3

The record that follows has no minimal effective concentration shown yet.
// query p53 in A2780 cells / minimal effective concentration / CN1CCN(CCc2c[nH]c3ccccc23)c2ccc(Nc3ccnc(CO)c3)cc21 [Compound 20] : value?
// result 3

###

Would you mind telling me the reported minimal effective concentration of each entry?
- Tested on: p53 in A2780 cells
- test-name: p53 ELISA (preservation of p53 in A2780 cells)
- Format: cell-based
- condition-set: Homo sapiens, treated with compound for 16 hours, read-out: p53-elisa LAD (lowest dose giving at least 140% of the value for p53 present in the control)

As a guide, the following entries are already answered.
- molecule: "OC1CCc2c(Nc3ccc4c(c3)OC3(CCOCC3)CN4CCc3c[nH]c4ccccc34)ccnc21 (centres unmarked) [Compound 30]"
  minimal effective concentration: "> 10 µM"
- molecule: "Cc1cccc2c(CCN3CC(C)(C)Oc4cc(Nc5ccnc6c5CCC6O)ccc43)c[nH]c12 (centres unmarked) [Compound 44]"
  minimal effective concentration: "> 10 µM"
- molecule: "CC1(C)Oc2cc(Nc3ccncc3)ccc2N(CCc2c[nH]c3ccccc23)C1=O [Compound 63]"
  minimal effective concentration: "> 10 µM"

Required: minimal effective concentration, one value per molecule below.
1. Cc1cccc2c(CCN3CC4(CCNCC4)Oc4cc(Nc5ccncc5)ccc43)c[nH]c12 [Compound 73]
2. OC1CCc2c(Nc3ccc4c(c3)CCCN4CCc3c[nH]c4ccccc34)ccnc21 (centres unmarked) [Compound 11]
3. Cc1cccc2c(CCN3CC(C)Oc4cc(Nc5ccnc6c5CCC6O)ccc43)c[nH]c12 (centres unmarked) [Compound 42]
4. CC(C)N1CCC2(CC1)CN(CCc1c[nH]c3ccccc13)c1ccc(Nc3ccnc4c3CCC4O)cc1O2 (centres unmarked) [Compound 33]
5. Cc1cccc2c(CCN3CCOc4cc(Nc5ccnc(CO)c5)ccc43)c[nH]c12 [Compound 72]

// result
> 10 µM
0.1 µM
> 10 µM
> 10 µM
> 10 µM

Look up minimal effective concentration for the entries below, preserving their order.
1. c1ccc2c(CCN3CCOc4cc(Nc5ccncc5)ccc43)c[nH]c2c1 [Compound 3]
2. OC1CCc2c(Nc3ccc4c(c3)OCCN4CCc3coc4ccccc34)ccnc21 (centres unmarked) [Compound 70]
3. OCc1cc(Nc2cc(F)c3c(c2)OCCN3CCc2c[nH]c3ccccc23)ccn1 [Compound 69]
4. OC1CCc2c(Nc3ccc4c(c3)OCCN4CCc3csc4ccccc34)ccnc21 (centres unmarked) [Compound 12]
5. Cc1cccc2c(CCN3CC(C)(C)Oc4cc(Nc5ccncc5)ccc43)c[nH]c12 [Compound 52]
6. Cc1cccc2c(CCN3CC4(CCCCC4)Oc4cc(Nc5ccnc(CO)c5)ccc43)c[nH]c12 [Compound 34]
7. OCc1cc(Nc2ccc3c(c2)OC2(CCCC2)CN3CCc2c[nH]c3ccccc23)ccn1 [Compound 40]
8. Cc1cccc2c(CCN3CCOc4cc(Nc5ccncc5)ccc43)c[nH]c12 [Compound 48]

// result
["> 10 µM", "10 µM", "10 µM", "0.3 µM", "> 10 µM", "0.3 µM", "> 10 µM", "> 10 µM"]

// query Need minimal effective concentration, item CCC1(C)CN(CCc2c[nH]c3ccccc23)c2ccc(Nc3ccnc(CO)c3)cc2O1 (centres unmarked) [Compound 46]
// result > 10 µM

###

- System: p53 in A2780 cells
- test-name: p53 ELISA (preservation of p53 in A2780 cells)
- Type: cell-based
- condition-set: Homo sapiens, treated with compound for 16 hours, read-out: p53-elisa LAD (lowest dose giving at least 140% of the value for p53 present in the control)
- Description: The capacity of the compounds to preserve p53 in A2780 cells was measured with the p53 enzyme linked immunosorbent assay (ELISA). The p53 assay is a “sandwich” enzyme immunoassay employing two polyclonal antibodies. […] The coloured reaction product is quantified using a spectrophotometer. Quantitation is achieved by the construction of a standard curve using known concentrations of purified recombinant HIS tagged p53 protein (see example C.1). […]
Give minimal effective concentration for every item shown.

Answered examples (2):
- compound: "Cc1cccc2c(CCN3CC(O)COc4cc(Nc5ccnc6c5CCC6O)ccc43)c[nH]c12 (stereo not drawn)"
  minimal effective concentration: "> 10 µM"
- compound: "CC1(C)CN(CCc2c[nH]c3ccccc23)c2ccc(Nc3ccncc3)cc2O1"
  minimal effective concentration: "> 10 µM"

Please give minimal effective concentration, item by item, for the list that follows.
1. CC1CN(CCc2c[nH]c3ccccc23)c2c(F)cc(Nc3ccncc3)cc2O1 (stereo not drawn)
2. OCc1cc(Nc2ccc3c(c2)CCCN3CCc2c[nH]c3ccccc23)ccn1
3. c1ccc2c(CCN3CCOc4cc(Nc5ccncc5)ccc43)coc2c1
4. CC1(C)CN(CCc2c[nH]c3ccccc23)c2ccc(Nc3ccnc(CO)c3)cc2O1

// result
["> 10 µM", "3 µM", "> 10 µM", "> 10 µM"]

###

- Tested on: p53 in A2780 cells
- test-name: p53 ELISA (preservation of p53 in A2780 cells)
- Format: cell-based
- condition-set: Homo sapiens, treated with compound for 16 hours, read-out: p53-elisa LAD (lowest dose giving at least 140% of the value for p53 present in the control)
property-label: minimal effective concentration

Some solved cases for reference:
- compound: "OC1CCc2c(Nc3ccc4c(c3)OC(c3ccoc3)CN4CCc3c[nH]c4ccccc34)ccnc21 (centres unmarked)"
  minimal effective concentration: "0.3 µM"
- compound: "Fc1cc(Nc2ccncc2)cc2c1N(CCc1c[nH]c3ccccc13)CCO2"
  minimal effective concentration: "> 10 µM"
- compound: "CC(C)N1CCC2(CC1)CN(CCc1c[nH]c3ccccc13)c1ccc(Nc3ccncc3)cc1O2"
  minimal effective concentration: "> 10 µM"

Hey, quick one: what's minimal effective concentration for each of these?
1. c1ccc2c(CCN3CCOc4cc(Nc5ccncc5)ccc43)csc2c1
2. OCc1cc(Nc2ccc3c(c2)OCCN3CCc2coc3ccccc23)ccn1
3. CC1Oc2cc(Nc3ccnc(CO)c3)ccc2N(CCc2c[nH]c3ccccc23)C1=O (centres unmarked)
4. CC1CN(CCc2c[nH]c3ccccc23)c2c(F)cc(Nc3ccnc4c3CCC4O)cc2O1 (centres unmarked)
5. CC1CN(CCc2c[nH]c3ccccc23)c2ccc(Nc3ccnc4c3CCC4O)cc2O1 (centres unmarked)

// result
> 10 µM
> 10 µM
> 10 µM
3 µM
3 µM

###

- Tested on: p53 in A2780 cells
- test-name: p53 ELISA (preservation of p53 in A2780 cells)
- Assay type: cell-based
- condition-set: Homo sapiens, treated with compound for 16 hours, read-out: p53-elisa LAD (lowest dose giving at least 140% of the value for p53 present in the control)
property-label: minimal effective concentration

Recorded minimal effective concentration, per entry:
- compound: "OCc1cc(Nc2ccc3c(c2)OC2(CCNCC2)CN3CCc2c[nH]c3ccccc23)ccn1 [Compound 16]"
  system-name: "p53 in A2780 cells"
  property-label: "minimal effective concentration"
  data-value: "> 10 µM"
- compound: "CCC1(C)CN(CCc2c[nH]c3ccccc23)c2ccc(Nc3ccnc4c3CCC4O)cc2O1 (stereo not drawn) [Compound 27]"
  system-name: "p53 in A2780 cells"
  property-label: "minimal effective concentration"
  data-value: "1 µM"
- compound: "CCC1(C)CN(CCc2c[nH]c3ccccc23)c2ccc(Nc3ccncc3)cc2O1 (stereo not drawn) [Compound 54]"
  system-name: "p53 in A2780 cells"
  property-label: "minimal effective concentration"
  data-value: "> 10 µM"
- compound: "Cc1cccc2c(CCN3C[C@@H](CO)Oc4cc(Nc5ccnc6c5CC[C@@H]6O)ccc43)c[nH]c12 [Compound 19]"
  system-name: "p53 in A2780 cells"
  property-label: "minimal effective concentration"
  data-value: "> 10 µM"
- compound: "COc1cccc2c(CCN3CCOc4cc(Nc5ccnc(CO)c5)ccc43)c[nH]c12 [Compound 81]"
  system-name: "p53 in A2780 cells"
  property-label: "minimal effective concentration"
  data-value: "> 10 µM"
- compound: "Cc1cccc2c(CCN3CC4(CCNCC4)Oc4cc(Nc5ccnc6c5CCC6O)ccc43)c[nH]c12 (stereo not drawn) [Compound 74]"
  system-name: "p53 in A2780 cells"
  property-label: "minimal effective concentration"
  data-value: "> 10 µM"
- compound: "CN1CCN(CCc2c[nH]c3ccccc23)c2ccc(Nc3ccnc4c3CCC4O)cc21 (stereo not drawn) [Compound 75]"
  system-name: "p53 in A2780 cells"
  property-label: "minimal effective concentration"
  data-value: "> 10 µM"
- compound: "COc1cccc2c(CCN3CCOc4cc(Nc5ccncc5)ccc43)c[nH]c12 [Compound 47]"
  system-name: "p53 in A2780 cells"
  property-label: "minimal effective concentration"
  data-value: "> 10 µM"

# per-item lookup of minimal effective concentration; items listed below
1. Cc1cccc2c(CCN3CC(C)Oc4cc(Nc5ccnc(CO)c5)ccc43)c[nH]c12 (stereo not drawn) [Compound 37]
2. OCc1cc(Nc2ccc3c(c2)OCCN3CCc2c[nH]c3ccccc23)ccn1 [Compound 22]
3. Cc1cccc2c(CCN3CC4(CCN(C)CC4)Oc4cc(Nc5ccncc5)ccc43)c[nH]c12 [Compound 58]
4. O=C1COc2cc(Nc3ccncc3)ccc2N1CCc1c[nH]c2ccccc12 [Compound 4]
5. CN1CCC2(CC1)CN(CCc1c[nH]c3ccccc13)c1ccc(Nc3ccnc(CO)c3)cc1O2 [Compound 43]

// result
["> 10 µM", "1 µM", "> 10 µM", "> 10 µM", "> 10 µM"]
